Below: a set of entries, each annotated with reported Population Apoptotic (%).
System: Fibroblast
assay protocol: Multiplex assay against human fibroblast
Format: toxicity, cell-based
recorded conditions: 12 h, 1 µM, compound concentration 1 uM, replicate 2
Use % as the unit, but write only the number.

In the examples that follow, each entry is paired with its recorded Population Apoptotic (%).
# compound, Population Apoptotic (%)
measured = [
    ("O=C1[C@H](Cc2ccc(O)cc2)N2C(=O)CCN(C(=O)NCc3ccccc3)[C@H]2CN1Cc1cccc2ccccc12", 30),
    ("CN(C)C(=O)Cn1cc(-c2ccc(-c3cncc4ccccc34)cc2)cn1", 32),
    ("O=C(CCCc1ccccc1)Nc1nc2ccccc2c(=O)s1", 34),
    ("CC(/C=C1\\SC(=S)N(CCCC(=O)Nc2ccc(C(=O)O)c(O)c2)C1=O)=C\\c1ccccc1", 33),
]

Moving on to another compound below.
Problem: Look up Population Apoptotic (%): Cl.N=C(N)NC(=O)Cc1c(Cl)cccc1Cl [GUANFACINE HYDROCHLORIDE]
Solution: 28

* * *

System: U2OS
assay protocol: Multiplex assay against U2OS
Assay type: toxicity, cell-based
recorded conditions: human, 24 h, 1 µM, compound concentration 1 uM, replicate 1
assay metric: Population Membrane Permeable-Phenotype (%)
Use % as the unit, but write only the number.

# compound, reported value
records = [
    ("CN(C)C(=O)Cn1cc(-c2ccc(-c3cncc4ccccc34)cc2)cn1", 5),
    ("COc1ccccc1N1CCN(C[C@@H](C(=O)NC(C)(C)C)c2ccccc2)CC1.Cl.Cl", 7),
    ("O=C1[C@H](Cc2ccc(O)cc2)N2C(=O)CCN(C(=O)NCc3ccccc3)[C@H]2CN1Cc1cccc2ccccc12", 4),
    ("CN1CCN(c2cc(-c3ccccc3)nc(N)n2)CC1", 7),
    ("CCc1cc2cc(NS(=O)(=O)c3ccc(C#N)cc3)ccc2n(CC)c1=O", 9),
]

Problem: Look up Population Membrane Permeable-Phenotype (%): Cc1sc2c(c1C)C(c1ccc(Cl)cc1)=N[C@@H](CC(=O)NCCCCCCCCNC(=O)COc1cccc3c1C(=O)N(C1CCC(=O)NC1=O)C3=O)c1nnc(C)n1-2 (stereo partly drawn)
Solution: 8

Problem: Look up Population Membrane Permeable-Phenotype (%): "C[C@H](N)COC(=O)[C@@H](CCCCN)NC(=O)Cc1c(-c2ccc3ccccc3c2)[nH]c2c1ccc1ccccc12"
Solution: 3

Problem: Look up Population Membrane Permeable-Phenotype (%): "COc1cccc2c1c(NS(=O)(=O)c1ccc(Cl)s1)nn2Cc1cccc(CNC(=O)C(C)(C)O)c1"
Solution: 5

* * *

Test system: U2OS
assay protocol: Multiplex assay against U2OS
Format: toxicity, cell-based
recorded conditions: human, 24 h, 10 µM, compound concentration 10 uM, replicate 1
Below: a set of entries, each annotated with reported Population Mitochondria Different-Phenotype (%).
Use % as the unit, but write only the number.

# molecule, reported value
measured = [
    ("NCCc1cn(S(=O)(=O)c2c(Cl)nc3sccn23)c2ccccc12.O=C(O)C(=O)O", 63),
    ("Br.CS(=O)(=O)Nc1c(O)ccc2c1CCCC2C1=NCCN1 (stereo not given)", 1),
    ("O=C1[C@H](Cc2ccc(O)cc2)N2C(=O)CCN(C(=O)NCc3ccccc3)[C@H]2CN1Cc1cccc2ccccc12", 23),
    ("COc1cccc2c1c(NS(=O)(=O)c1ccc(Cl)s1)nn2Cc1cccc(CNC(=O)C(C)(C)O)c1", 3),
]

Moving on to another molecule below.
Problem: Look up Population Mitochondria Different-Phenotype (%): "CN(C)C(=O)Cn1cc(-c2ccc(-c3cncc4ccccc34)cc2)cn1"
Solution: 9

* * *

System: HEK-293T
assay protocol: Multiplex assay against HEK293T
Assay type: toxicity, cell-based
recorded conditions: human, 48 h, 10 µM, compound concentration 10 uM, replicate 1
Below: a set of entries, each annotated with reported Population Tubulin-Different-Phenotype (%).
Use % as the unit, but write only the number.

# molecule, reported value
records = [
    ("Cl.N=C(N)NC(=O)Cc1c(Cl)cccc1Cl [GUANFACINE HYDROCHLORIDE]", 14),
    ("CC(=O)Nc1cccc2c1c(Sc1ccc(Cl)cc1)c(C)n2CC(=O)O", 11),
    ("Cc1noc(-c2ccc(-c3ccc(CC(=O)O)cc3)cc2)c1NC(=O)O[C@H](C)c1ccccc1Cl", 33),
    ("Cl.NCCc1ccc(O)c(O)c1 [DOPAMINE HYDROCHLORIDE]", 13),
    ("CC(C)(C)c1cc(NC(=O)Nc2ccc(-c3cn4c(n3)sc3cc(OCCN5CCOCC5)ccc34)cc2)no1", 35),
]

Moving on to another molecule below.
Problem: # get_value(readout= Population Tubulin-Different-Phenotype (%), system= HEK-293T) for "CC(/C=C1\SC(=S)N(CCCC(=O)Nc2ccc(C(=O)O)c(O)c2)C1=O)=C\c1ccccc1"
Solution: 22

* * *

System: Fibroblast
assay protocol: Multiplex assay against human fibroblast
Type: toxicity, cell-based
recorded conditions: 48 h, 1 µM, compound concentration 1 uM, replicate 1
assay metric: Population Healthy Nuclei (%)
Could you give the number and then its unit, please?

In the examples that follow, each entry is paired with its recorded Population Healthy Nuclei (%).
# compound, Population Healthy Nuclei (%)
records = [
    ("CCCOc1ccc2[nH]cc(C3=CCNCC3)c2n1.Cl", "74%"),
    ("CN1CCN(c2cc(-c3ccccc3)nc(N)n2)CC1", "62%"),
]

Problem: Look up Population Healthy Nuclei (%): "CCc1cc2cc(NS(=O)(=O)c3ccc(C#N)cc3)ccc2n(CC)c1=O"
Solution: 59%

Problem: Look up Population Healthy Nuclei (%): "CN[C@@H](C)C(=O)N[C@H](C(=O)N1CCC[C@H]1C(=O)Nc1snnc1-c1ccccc1)C1CCCCC1"
Solution: 60%

Problem: Look up Population Healthy Nuclei (%): "Cc1onc(-c2ccccc2Cl)c1C(=O)N(C)c1ccc(Cl)cc1"
Solution: 62%

Problem: Look up Population Healthy Nuclei (%): "COc1cccc2c1c(NS(=O)(=O)c1ccc(Cl)s1)nn2Cc1cccc(CNC(=O)C(C)(C)O)c1"
Solution: 66%

Problem: Look up Population Healthy Nuclei (%): Br.CS(=O)(=O)Nc1c(O)ccc2c1CCCC2C1=NCCN1 (configuration not stated)
Solution: 76%

* * *

Below: a set of entries, each annotated with reported Population Hoechst High Intensity Objects (%).
System: U2OS
assay protocol: Multiplex assay against U2OS
Type: toxicity, cell-based
recorded conditions: human, 48 h, 10 µM, compound concentration 10 uM, replicate 1
Use % as the unit, but write only the number.

In the examples that follow, each entry is paired with its recorded Population Hoechst High Intensity Objects (%).
# compound, system under test, reported value
rows = [
    ("COC[C@@H](c1ccc(C(F)(F)F)cc1)N1CCN(C2(C)CCN(C(=O)c3c(C)ncnc3C)CC2)C[C@@H]1C.O=C(O)/C=C\\C(=O)O [VICRIVIROC MALEATE]", "U2OS", 2),
    ("Cc1cccc(NC(=O)CN2CCC(c3ccccn3)CC2)c1.Cl.Cl", "U2OS", 3),
    ("C[C@H](N)COC(=O)[C@@H](CCCCN)NC(=O)Cc1c(-c2ccc3ccccc3c2)[nH]c2c1ccc1ccccc12", "U2OS", 4),
    ("Cc1cnc(-c2cc(N3CCN(C(=O)CCS(C)(=O)=O)CC3)ncc2Cl)c(C)c1", "U2OS", 1),
    ("O=C(NCCN1CCC(n2c(=O)[nH]c3cc(Cl)ccc32)CC1)c1ccc(F)cc1 [HALOPEMIDE]", "U2OS", 3),
    ("Cc1onc(-c2ccccc2Cl)c1C(=O)N(C)c1ccc(Cl)cc1", "U2OS", 3),
]

Problem: Look up Population Hoechst High Intensity Objects (%): "NCCc1cn(S(=O)(=O)c2c(Cl)nc3sccn23)c2ccccc12.O=C(O)C(=O)O"
Solution: 7

Problem: Look up Population Hoechst High Intensity Objects (%): "CCCCC(=O)N(Cc1ccc(-c2ccccc2-c2nnn[nH]2)cc1)[C@H](C(=O)O)C(C)C"
Solution: 1

Problem: Look up Population Hoechst High Intensity Objects (%): "O=C(CCCc1ccccc1)Nc1nc2ccccc2c(=O)s1"
Solution: 2

* * *

System: HEK-293T
assay protocol: Multiplex assay against HEK293T
Assay type: toxicity, cell-based
recorded conditions: human, 12 h, 10 µM, compound concentration 10 uM, replicate 1
Below: a set of entries, each annotated with reported Population Hoechst High Intensity Objects (%).
Use % as the unit, but write only the number.

In the examples that follow, each entry is paired with its recorded Population Hoechst High Intensity Objects (%).
# molecule, reported value
records = [
    ("Br.CS(=O)(=O)Nc1c(O)ccc2c1CCCC2C1=NCCN1 (stereo not given)", 12),
    ("CC(C)COc1ccc(CNC(=O)N(Cc2ccc(F)cc2)C2CCN(C)CC2)cc1", 19),
    ("NCCc1cn(S(=O)(=O)c2c(Cl)nc3sccn23)c2ccccc12.O=C(O)C(=O)O", 22),
    ("CC(C)c1noc(N2CCC(COc3ccc(-c4ccc(S(C)(=O)=O)cc4)nc3)CC2)n1", 13),
]

Problem: Look up Population Hoechst High Intensity Objects (%): "O=C1[C@H](Cc2ccc(O)cc2)N2C(=O)CCN(C(=O)NCc3ccccc3)[C@H]2CN1Cc1cccc2ccccc12"
Solution: 11

Values were extracted from ChEMBL document CHEMBL5058577.
